// data source = PubChem BioAssay AID651724

# Test system: CtBP / adenovirus E1A interaction (AlphaScreen)
# procedure_text: qHTS Assay for Inhibitors of the CtBP/E1A Interaction; also: % is scaled to controls: 0 for no effect and ±100 for the full control effect
# experimental_setup: AlphaScreen GST-E1A/His-CtBP binding, 1536-well; active compounds read low
Among all 340,000 compounds or so, about 1,700 (0.5%) were called active. Roughly 2% stayed inconclusive and do not appear here. The sample as a whole holds a higher share of actives than the screen did.
measurement_kind: activity change (%)
The reply should be a number in %, with the unit left off.

Worked set:
compound: Cc1ccc(NC(=O)c2nc[nH]c2C(=O)N[C@@H](CCCCNC(=O)OC(C)(C)C)C(=O)OC(C)(C)C)cc1
activity change, %: -1.82
--
compound: COC(=O)[C@]12CCCCC=C1N(CCC1=CCCCC1)C(=O)[C@H](CC(=O)N1CCSCC1)C2
activity change, %: -7.56
--
compound: Cc1ccc(-n2ncc3c(Nc4cccc(C(=O)O)c4)ncnc32)cc1
activity change, %: -74.4
--
compound: CCCCN1C[C@H](c2ccc(Br)cc2)[C@@H](CC(=O)Nc2ccc(Br)cc2)C1=O
activity change, %: -4.21

Given the entry Oc1ccc(/C=N/Nc2ccc(C(F)(F)F)cn2)cc1O , what activity change was observed with CtBP / adenovirus E1A interaction (AlphaScreen)?
-14

Given the entry CCCCCc1c(-c2cccc(Br)c2)ncn1CCc1ccccc1OC , what activity change was observed with CtBP / adenovirus E1A interaction (AlphaScreen)?
-0.685

Given the entry Cc1cccc(C(=O)C(O)(c2ccccc2)C2CCCCC2=O)c1 (stereo unspecified) , what activity change was observed with CtBP / adenovirus E1A interaction (AlphaScreen)?
3.76

Given the entry Cc1nc2c(OCc3ccc(Cl)cc3Cl)cccn2c1N(C)CC1CC1 , what activity change was observed with CtBP / adenovirus E1A interaction (AlphaScreen)?
-25.5

Given the entry CCOC(=O)c1ccc(Nc2cc3ccccc3c(=O)[nH]2)cc1 , what activity change was observed with CtBP / adenovirus E1A interaction (AlphaScreen)?
2.43

Given the entry Cc1ccc(NC(=O)CSc2nnc(CNC(=O)c3ccccc3F)o2)cc1Cl , what activity change was observed with CtBP / adenovirus E1A interaction (AlphaScreen)?
-15.1

Given the entry O=c1[nH][nH]c2c1[C@H](c1ccc(Cl)cc1)O[C@H](CCc1ccccc1)C2 , what activity change was observed with CtBP / adenovirus E1A interaction (AlphaScreen)?
1.98

Given the entry Cc1ccc(S(=O)(=O)N2CCCCC2)cc1NC(=O)CCNC(=O)c1ccccc1Cl , what activity change was observed with CtBP / adenovirus E1A interaction (AlphaScreen)?
2

Given the entry CCC(CC)C(C(=O)NC1CCCC1)N1CCN(c2cc(C)nc3ccccc23)CC1 (stereo unspecified) , what activity change was observed with CtBP / adenovirus E1A interaction (AlphaScreen)?
3.39

Given the entry CC(C)(C)OC(=O)NCCCCCNC(=O)c1nc[nH]c1C(=O)NCc1ccccc1 , what activity change was observed with CtBP / adenovirus E1A interaction (AlphaScreen)?
4.97

Given the entry COc1cccc(/C=N/Nc2ccc(S(=O)(=O)Nc3ccccc3C(=O)O)cc2[N+](=O)[O-])c1O , what activity change was observed with CtBP / adenovirus E1A interaction (AlphaScreen)?
-15.4

Given the entry CC(C)c1c(C(=O)N/N=C/c2ccccc2C(=O)O)nnn1-c1nonc1N , what activity change was observed with CtBP / adenovirus E1A interaction (AlphaScreen)?
18.7
